Tested on: HPPD polypeptides
Assay: coupled HPPD activity assay: turnover and residual turnover in crude extracts
Type: biochemical, Pseudomonas fluorescens
Settings: 100 μM Cmpd. 1; signal change with inhibitor divided by signal change without inhibitor
The following molecules are listed with their measured Residual turnover [%] values.
Number only, in %; omit the unit.

Solved entries:
stdin: Entry 52 (protein, mutant HPPD polypeptide) MADLYENPMGLMGFEFIEFASPTPGTLEPIFEIMGFTKVATHRSKNVHLYRQGEINLILNNEPNSIASYFAAEHGPSVCGMAFRVKDSQKAYNRALELGAQPIHIDTGPMELNLPAIKGIGGAPLYLIDRFGEGSSIYDIDFVYLEGVERNPVGAGLKVIDHLTHNVYRGRMVYWANFYEKLFNFREARYFDIKGEYTGLTSKAMSAPDGMIRIPLNEESSKGAGQIEEFLMQFNGEGIQHVAFLTDDLVKTWDALKKIGMRFMTAPADNYYEMLEGRLPDHGEPVDQLQARGILLDGSSVEGDKRLLLQIFSETLMGPVFFEFIQRKGDDGFGPDSFKVLFEQIERDQVRRGVLTAD needs its Residual turnover [%] filled in; supply it.
stdout: 47

stdin: Consider the molecule 41 (protein, mutant HPPD polypeptide) MADLYENPMGLMGFEFIEFASPTPGTLEPIFEIMGFTKVATHRSKNVHLYRQGEINLILNNEPNSIASYFAAEHGPSVCGMAFRVKDSQKAYNRALELGAQPIHIDTGPMELNLPAIKGIGGAPLYLIDRFGEGSSIYDIDFVYLEGVERNPVGAGLKVIDHLTHNVYRGRMVYWANFYEKLFNFREARYFDIKGEYTGLTSKAMSAPDGMIRIPLNEESSKGAGQIEEFLMQFNGEGIQHVAFLTDDLVKTWDALKKIGMRFMTAPRDEYYEMLEGRLPDHGEPVDQLQARGILLDGSSVEGDKRLLLQIFSETLMGPVFFEFIQRKGDDGFGPHSFKVLFESVERDQVRRGVLTAD . State its measured Residual turnover [%].
stdout: 38

// next item, Residual turnover [%] requested
stdin: Determine its reported Residual turnover [%]: 24 (protein, mutant HPPD polypeptide) MADLYENPMGLMGFEFIEFASPTPGTLEPIFEIMGFTKVATHRSKNVHLYRQGEINLILNNEPNSIASYFAAEHGPSVCGMAFRVKDSQKAYNRALELGAQPIHIDTGPMELNLPAIKGIGGAPLYLIDRFGEGSSIYDIDFVYLEGVERNPVGAGLKVIDHLTHNVYRGRMVYWANFYEKLFNFREARYFDIKGEYTGLTSKAMSAPDGMIRIPLNEESSKGAGQIEEFLMQFNGEGIQHVAFLTDDLVKTWDALKKIGMRFMTAPADTYYEMLEGRLPDHGEPVDQLQARGILLDGSSVEGDKRLLLQIFSETLMGPVFFEFIQRKGDDGFGPHSFKVLFESIERDQVRRGVLTAD
stdout: 39

Every entry's value here was drawn from patent US11180770B2.
